Values from ChEMBL document CHEMBL5058577

Tested on: HEK-293T
Test: Multiplex assay against HEK293T
Type: toxicity, cell-based
Settings: human, 12 h, 1 µM, compound concentration 1 uM, replicate 2
In this scheme, each record receives a class according to its Population Apoptotic (%); the ranges are Low (below 40%), Medium (40% to below 50%), High (50% or more)

Field: example entries. Status: answers known.
- MOLECULE: "CCCCCCNC(=O)Nc1ccc(S(=O)(=O)Nc2ccc(CCNC[C@H](O)COc3ccc(O)cc3)cc2)cc1"
  CATEGORY: "Low"
- MOLECULE: "C=CCN1C[C@H](C(=O)N(CCCN(C)C)C(=O)NCC)C[C@@H]2c3cccc4[nH]cc(c34)C[C@H]21"
  CATEGORY: "Low"
- MOLECULE: "C[C@@H]1CC(=O)Nc2cccc(-c3ccc4c(c3)c(-c3cnn(C)c3)nn4C)c2N1"
  CATEGORY: "High"
- MOLECULE: "COc1cc2nc(N3CCN(C(=O)COc4c(OC)cccc4C(C)C)CC3)nc(N)c2cc1OC.Cl.Cl"
  CATEGORY: "Medium"
- MOLECULE: "N[C@](CC1c2ccccc2Oc2ccccc21)(C(=O)O)[C@H]1C[C@@H]1C(=O)O"
  CATEGORY: "High"
- MOLECULE: "O=C(NCCNCC(O)COc1ccc(O)cc1)N1CCOCC1.O=C(NCCNCC(O)COc1ccc(O)cc1)N1CCOCC1.O=C(O)/C=C/C(=O)O (stereo not drawn) [XAMOTEROL FUMARATE]"
  CATEGORY: "High"
- MOLECULE: "O=c1nc2[nH]c3ccccc3nc-2c(=O)[nH]1"
  CATEGORY: "Medium"
- MOLECULE: "COc1ccc2c(c1OCc1ccccc1)C[C@@H](C(=O)O)N(C(=O)C(c1ccccc1)c1ccccc1)C2"
  CATEGORY: "Medium"

Inquiry: Band for `CC(C)(C)c1ccc(CSc2cnn(C(C)(C)C)c(=O)c2Cl)cc1` ?
Reply text: Low

Inquiry: Classify this molecule: CCC(=O)OCC(=O)[C@@]1(OC(=O)CC)[C@@H](C)C[C@H]2[C@@H]3CCC4=CC(=O)C=C[C@]4(C)[C@@]3(Cl)[C@@H](O)C[C@@]21C [BECLOMETHASONE DIPROPIONATE]
Reply text: Medium

Inquiry: The entry to classify is `Cc1cc(=O)n(C)c2cc(N3C(=O)CC[C@H](NS(=O)(=O)CC(C)C)[C@H]3c3ccc(Cl)cc3)ccc12` ; which class holds it?
Reply text: High

Inquiry: Hi, small favor: classify `CN(C)C(=O)Cn1cc(-c2ccc(-c3nnc4ccccn34)cc2)cn1` by its Population Apoptotic (%) when you get a moment.
Reply text: Medium

Inquiry: Class (by measured Population Apoptotic (%)) for `Cc1cc(O)c(-c2ccc([C@@H](C)CN(C)C)cc2)c2c1[nH]c(=O)c1sccc12`
Reply text: High

Inquiry: Hi, small favor: classify `COc1c(Nc2ccc(S(C)(=O)=O)nc2C)ncnc1OC1CCN(C(=O)OC(C)C)CC1` by its Population Apoptotic (%) when you get a moment.
Reply text: Low
